Test system: SK-OV-3 ovarian
protocol_notes: NCI-60 one-dose screen, 48 h
reported_conditions: 10 µM unless noted
About 83,000 compounds went through this panel and 20% of them were active in at least one assay; those are over-represented in the sample as a whole. Active and inactive are the calls of the source. The calls were made as follows: active = growth percent below 10; inactive = the rest.
// allowed return values: active, inactive

Please review the following examples before continuing.
compound: COc1ccc(-c2cc(-c3cccc4ccccc34)n3c(n2)nc2ccccc23)cc1OC
class: inactive
--
compound: CN1CCN(c2ccc3c(C(N)=O)c(NC(=O)c4ccc(C(C)(C)C)cc4)sc3c2)CC1
class: inactive

Task: Status in this test for CCOC(=O)c1c(Nc2ccccc2)nn2c(-c3ccc(OC)c(OC)c3)ccnc12 ?
Output: inactive

Task: Answer briefly: the call reported for CS(=O)(=O)c1nccc(-c2c(-c3ccc(F)c(OCCc4ccccc4)c3)nc3sccn23)n1 in this assay.
Output: inactive

Task: Please share the test call associated with COc1ccc(/C=N/Nc2nc(Nc3ccccc3)nc(Nc3ccc(S(N)(=O)=O)cc3)n2)cc1 .
Output: inactive

Task: Look up the recorded call for O=C1[C@H]2Cc3c([nH]c4ccccc34)[C@@H](c3ccc(Cl)cc3)N2C(=O)CN1C1CCN(Cc2c(Cl)cccc2Cl)CC1 in this test.
Output: inactive

Task: What classification did C#C[C@]1(O)CC[C@H]2[C@@H]3CC=C4c5sc(C6CC6)nc5CC[C@]4(C)[C@H]3CC[C@@]21C end up with in this test?
Output: inactive

Task: Short answer needed: outcome of this test for O=C1c2c(c3c4cc(Br)ccc4[nH]c3c3ccc4ccccc4c23)C(=O)N1CCN1CCNCC1 ?
Output: inactive

Task: State the result this test recorded for O=C(CN1C(=O)CSC1=O)Nc1ccc(C(=O)/C=C/c2cc3ccccc3nc2Cl)cc1 .
Output: inactive

Task: GET /call?item= O=C(CSc1nnc(-c2ccc(Cl)cc2)n1-c1ccccc1)Nc1ccc(F)cc1 returns the recorded outcome of this test.
Output: inactive

Task: Just curious, what result did O=c1[nH]c2cc(Cl)ccc2n1C1CCN(c2ccc3nnc(Cl)n3n2)CC1 get here?
Output: inactive

Task: Hey, what did the test say about N#C/C(=C\c1ccc(Cl)cc1Cl)C(N)=O ?
Output: inactive

Task: For CS(=O)(=O)c1nccc(-c2c(-c3ccc(F)c(OCc4ccc(F)cc4)c3)nc3sccn23)n1 , what call appears in the results of this test?
Output: inactive

Task: Test call for this compound, please: CCCCCCCCCC[C@@H](C)[C@@H]1CC(=O)N[C@H]([C@@H](C)O)C(=O)N[C@@H](C)C(=O)N[C@H](C)C(=O)N[C@@H](CCC(N)=O)C(=O)N[C@H](Cc2ccc(O)cc2)C(=O)N[C@@H](C(C)CC)C(=O)O1 (stereo partly specified)
Output: inactive

Task: Recorded call for COC1=C(c2ccccc2)C(=O)C(OC)=C(c2ccccc2)C1=O ?
Output: inactive

Task: # fetch the recorded call for Fc1ccccc1/C=C(/C1=NCCN1)n1cnc2ccccc21 here
Output: inactive

Task: Can you look up the reported call for C=CCn1c(SCC(=O)Nc2cccc(C(=O)/C=C/c3ccc(Br)cc3)c2)nc2ccccc2c1=O for me?
Output: inactive

Task: Call for entry COc1ccc([C@@H]2[C@@H](O)C(=O)N2c2cc(OC)c(OC)c(OC)c2)cc1 :
Output: inactive

Task: Which outcome was entered for the compound C#Cc1ccc(NC(=O)c2ccc(/C=C/C(=O)c3nccn3C)cc2)c(F)c1 in this test?
Output: inactive

Task: Which outcome did this test record for the compound Cn1c2ccc(Br)cc2c2c3c(c4c5cc(F)ccc5oc4c21)C(=O)N(O)C3=O ?
Output: inactive

Task: For CNC(=O)c1c(NC(=O)c2ccc(F)cc2F)sc2c1CCC(=O)C2 , what call appears in the results of this test?
Output: active

Task: Which outcome did this test record for the compound N/C(=N\OC(=O)CSc1nc2ccccc2s1)c1ccc(Cl)cc1 ?
Output: inactive

Task: Record lookup: outcome of this test for CCC(CC)n1c(=O)c(SC2=NC3C(NN2)N(CC)C(=O)N3CC)c(C(=O)O)c2ccccc21 (stereo unspecified) ?
Output: inactive
